target.or.test.system: T1, soluble FGFR4 receptor protein (human, UniProt P22455 144-369)
T1 sequence: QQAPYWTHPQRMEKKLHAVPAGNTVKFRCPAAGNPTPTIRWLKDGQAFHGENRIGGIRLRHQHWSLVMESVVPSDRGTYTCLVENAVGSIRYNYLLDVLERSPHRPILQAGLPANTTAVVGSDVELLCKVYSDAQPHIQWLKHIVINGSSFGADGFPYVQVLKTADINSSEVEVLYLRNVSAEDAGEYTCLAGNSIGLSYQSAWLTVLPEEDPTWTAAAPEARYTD
measurement.protocol: BLI Octet RED96, antibody on anti-hIgG Fc tip
The following binders are shown together with reported kon values.
measured.metric: kon (M⁻¹ s⁻¹)

# binder, units.text, test.result
rows = [
    ("Vk11 combined with the VH of Ab15 (antibody, V domains shown, captured on anti-human IgG Fc tips) VH: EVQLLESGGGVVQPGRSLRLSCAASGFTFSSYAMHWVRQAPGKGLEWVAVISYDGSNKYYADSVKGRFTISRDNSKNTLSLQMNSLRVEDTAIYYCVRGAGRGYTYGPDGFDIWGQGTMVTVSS VL: DIVMTQSPLSLPVTPGEPASISCTSSRSLLHSDGKTYVYWYLQKPGQSPQVLIYELSNRFSGVPDRFSGSGSGTDFTLKISRVEAEDVGVYYCMQYIEAPLTFGGGTKVEIK", "M⁻¹ s⁻¹", 125000),
    ("Vk10 combined with the VH of Ab15 (antibody, V domains shown, captured on anti-human IgG Fc tips) VH: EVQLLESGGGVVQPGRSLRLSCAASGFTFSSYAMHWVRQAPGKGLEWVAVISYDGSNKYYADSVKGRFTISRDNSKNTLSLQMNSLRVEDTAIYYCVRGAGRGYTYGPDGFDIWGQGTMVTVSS VL: DIVMTQSPDSLAVSLGERATISCTSSRSLLHSDGKTYVYWYQQKPGQPPKLLIYELSNRFSGVPDRFSGSGSRTDFTLTISSLQAEDVAVYYCMQYIEAPLTFGGGTKVEIK", "M⁻¹ s⁻¹", 132000),
    ("Ab92 (antibody, human IgG2, kappa, V domains shown, format in the assays not spelled out) VH: EVQLLESGGGVVQPGRSLRLSCAASGFTFSSYAMHWVRQAPGKGLEWVAVISYDGSNKYYADSVKGRFTISRDNSKNTLSLQMNSLRVEDTAIYYCVRGAGHGFPTGPDGFDIWGQGTMVTVSS VL: DIVMTQTPLSLSVTPGQPASISCRSSRSLLHSDGKTYVYWYVQKSGQPPQLLIYELSNRFSGVPDRFSGSGSRTDFTLKISRVEAEDVGVYYCMQYVEAPLTFGGGTKVEIKR", "M⁻¹ s⁻¹", 60600),
]

Reference for the values: patent US20180244785A1
